Biological target: LmCld (chlorite dismutase-like protein, HemQ) (Listeria monocytogenes)
Construct: N-terminal StrepII-tag, TEV-cleavable (cleaved for crystallization); recombinant in E. coli Tuner (DE3); subunit approx. 30 kDa; hexamer approx. 180 kDa in solution, pentamer in crystal
Sequence (Q8Y5F1 1-251): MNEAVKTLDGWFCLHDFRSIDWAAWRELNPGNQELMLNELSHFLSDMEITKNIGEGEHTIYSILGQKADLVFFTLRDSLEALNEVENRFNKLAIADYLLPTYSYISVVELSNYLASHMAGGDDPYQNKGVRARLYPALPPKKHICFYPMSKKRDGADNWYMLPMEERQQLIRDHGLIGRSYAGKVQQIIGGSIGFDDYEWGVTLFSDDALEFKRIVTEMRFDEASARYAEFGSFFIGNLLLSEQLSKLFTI
Test: electronic circular dichroism titration, Soret minimum […] nm, Hill fit
reported metric: pKd
# pKd is unitless: minus log10 of the molar concentration; print number only

[Q] Query (compound): "C=CC1=C(C)C2=Cc3c(C=C)c(C)c4[n]3[Fe]([Cl])[n]3c(c(C)c(CCC(=O)O)c3=CC3=NC(=C4)C(C)=C3CCC(=O)O)=CC1=N2" ; field requested: pKd
[A] 5.14
